- System: BGC-823
- Assay Explanation: Cytotoxicity against human BGC-823 cells after 96 hrs by MTT assay
- Format: functional, cell-based
- Experimental Parameters: BGC-823, 96 h
Reported Metric: IC50

Field: example entries. Status: answers known.
CCCCCCCCCCCCCC1=C(O)C(=O)C=C(NCCCC(=O)O)C1=O	> 10 µg/mL
COc1cc([C@H]2c3c(cc(OC)c(O)c3OC)C[C@@H](CO)[C@@H]2CO[C@@H]2O[C@H](CO)[C@@H](O)[C@H](O)[C@H]2O)cc(OC)c1O	> 10 µg/mL
CC[C@H](CC[C@@H](C)[C@H]1CC[C@H]2[C@@H]3CC=C4C[C@@H](O[C@@H]5O[C@H](CO)[C@@H](O)[C@H](O)[C@H]5O)CC[C@]4(C)[C@H]3CC[C@]12C)C(C)C [SITOGLUSIDE]	> 10 µg/mL
COc1cc(O)cc(OC)c1O[C@@H]1O[C@H](CO)[C@@H](O)[C@H](O)[C@H]1O [LEONURISIDE]	> 10 µg/mL
CCCCCc1cc(O)cc(OC)c1	> 10 µg/mL
Oc1cc(O)c2c(c1)O[C@H](c1ccc(O)c(O)c1)[C@@H](O)C2 [CIANIDANOL]	> 10 µg/mL

Task: Supply measured IC50 of CC[C@H](CC[C@@H](C)[C@H]1CC[C@H]2[C@@H]3CC=C4C[C@@H](O)CC[C@]4(C)[C@H]3CC[C@]12C)C(C)C [BETA-SITOSTEROL] in your reply.
Result: > 10 µg/mL

Task: Indicate its recorded IC50; the compound in question is CCCCCCCCCCCCCC1=C(O)C(=O)C=C(O)C1=O [Rapanone]
Result: 1890 nM
